# assay-target: T1, CD123 Protein, His Tag, Acro Biosciences Cat. No. ILA-H52H6 (Homo sapiens (Human), UniProt P26951 19-305)
# T1 construct: Bought protein; not shown: His tag
# T1 sequence: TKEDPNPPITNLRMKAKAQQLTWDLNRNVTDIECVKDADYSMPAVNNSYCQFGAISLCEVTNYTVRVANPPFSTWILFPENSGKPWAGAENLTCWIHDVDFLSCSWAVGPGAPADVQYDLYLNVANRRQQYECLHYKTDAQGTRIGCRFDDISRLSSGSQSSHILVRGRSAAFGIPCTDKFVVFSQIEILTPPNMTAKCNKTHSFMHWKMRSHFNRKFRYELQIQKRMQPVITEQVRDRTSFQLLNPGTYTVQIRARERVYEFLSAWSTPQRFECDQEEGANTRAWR
# assay-text: BLI, IgG on anti-human Fc sensor, 50 nM CD123, pH 7.4 and pH 5.4

{"columns": ["binder", "binding result"],
 "data": [
  ["MYT1440 (antibody, V domains shown, IgG) VH: QVQLVQSGAEVKKPGASVKMSCKASGYTFTDYYMKWVKQAPGQGLEWIGDIIPSNGATFYNQKFKHKATLTVDRSISTAYMHLNRLRSDDTAVYYCTRSHLLRASWFAYWGQGTLVTVSS VL: DFVMTQSPDSLAVSLGERATINCKSSQSLLNSGNQKNYLTWYLQKPGQPPKLLIYWASTRESGVPDRFSGSGSGTDFTLTISSLQAEDVAVYYCQNDYSYPYTFGQGTKLEIK", "binds"],
  ["MYT1446 (antibody, V domains shown, IgG) VH: QVQLVQSGAEVKKPGASVKMSCKASGYTFTDYYMKWVKQAPGQGLEWIGDIIPSNGATFYNQKFKGKATLTVDRSISTAYMHLNRLRSDDTAVYYCTRSHLHRASWFAYWGQGTLVTVSS VL: DFVMTQSPDSLAVSLGERATINCKSSQSLLNSGNQKNYLTWYLQKPGQPPKLLIYWASTRESGVPDRFSGSGSGTDFTLTISSLQAEDVAVYYCQNDYSYPYTFGQGTKLEIK", "binds"]
]}
